Origin of values: PubChem BioAssay (NCI)

system: OVCAR-8 ovarian; assay: NCI tumour cell line growth inhibition, 48 h
Measured TGI accompanies every entry in the list below.
quantity: TGI (µM)

[
  {
    "compound": "Cc1cc(Br)c(O)c(-c2cscn2)c1",
    "qualifier-symbol": "=",
    "quantitative-readout": 42.1
  },
  {
    "compound": "CN(Cc1ccccc1)C(=S)S",
    "qualifier-symbol": ">",
    "quantitative-readout": 100
  },
  {
    "compound": "CCCCCCCC(=O)OC[n+]1cccc(-c2c(COC(=O)NC(C)C)c(COC(=O)NC(C)C)c3n2CCC3)c1",
    "qualifier-symbol": ">",
    "quantitative-readout": 100
  },
  {
    "compound": "CC(C)(C)OC(=O)N1CCC2(CC1)C(=O)NCN2c1ccccc1",
    "qualifier-symbol": ">",
    "quantitative-readout": 100
  },
  {
    "compound": "NC(=O)N1N=C2c3ccccc3OC[C@H]2[C@@H]1c1ccccc1",
    "qualifier-symbol": "=",
    "quantitative-readout": 27.2
  },
  {
    "compound": "CNC(=O)N(CCCCC(NC(C)=O)C(=O)NCc1ccccc1)Cc1ccccc1 (stereo not given)",
    "qualifier-symbol": ">",
    "quantitative-readout": 100
  },
  {
    "compound": "O=C(NCCNC1=CC(=O)c2nc3ccccc3c3ccnc1c23)c1cnccn1",
    "qualifier-symbol": ">",
    "quantitative-readout": 100
  },
  {
    "compound": "COc1ccc(N=C2C(=O)Nc3ccc(Br)cc32)cc1",
    "qualifier-symbol": "=",
    "quantitative-readout": 32.2
  },
  {
    "compound": "C=C(/C=C/C=C(\\CO)CCC=C(C)C)[C@H]1CCC2([C@H](CCCO)/C(=C(/C)C=O)CC[C@]2(C)O)[C@H]1O (stereo not given in full)",
    "qualifier-symbol": ">",
    "quantitative-readout": 100
  },
  {
    "compound": "c1ccc2c(c1)ccc1cc3cc(NCCCCNc4ccc5nc6c(ccc7ccccc76)cc5c4)ccc3nc12",
    "qualifier-symbol": "=",
    "quantitative-readout": 0.303
  }
]
